meta.source: ChEMBL document CHEMBL3877292

Assay: Selectivity index, ratio of CC50 for Herpes simplex type I KOS infected African green monkey Vero cells to EC50 for Herpes simplex virus type 1 KOS
Assay type: toxicity, cell-based
Details: Herpes simplex virus type 1 KOS infected Vero cells, read-out: Ratio CC50/EC50
QUANTITY NAME: selectivity ratio

1) CN(C)c1ccc(-c2nc(C(=O)N/N=C3\SCC(=O)N3c3ccccc3)cc3c2[nH]c2ccccc23)cc1 = 16.4
2) O=C1CS/C(=N\NC(=O)c2cc3c([nH]c4ccccc43)c(-c3ccccc3)n2)N1 = 24.4
3) O=C(N/N=C1\SCC(=O)N1c1ccccc1)c1cc2c([nH]c3ccccc32)c(-c2cccc([N+](=O)[O-])c2)n1 = 67.8
4) O=C(N/N=C1\SCC(=O)N1c1ccccc1)c1cc2c([nH]c3ccccc32)c(-c2ccccc2)n1 = 18.8

// moving on: another record for selectivity ratio
Ask: Name the reported selectivity ratio value associated with the compound O=C1CS/C(=N\NC(=O)c2cc3c([nH]c4ccccc43)c(-c3ccccc3F)n2)N1
Reply: 54.9

====

Each entry below carries its recorded GI50.
Assay: Antiproliferative activity against human U251 cells after 48 hrs by SRB assay
Format: functional
Conditions: U-251, 48 h
// return numeric value only (unit: µM, not printed)

A selection of reference data follows.
1) CN(C)c1ccc(-c2nc(C(=O)NN3C(=O)CSC3c3ccccc3)cc3c2[nH]c2ccccc23)cc1 (stereo not given) = 64.5
2) CCN1C(=O)CS/C1=N\NC(=O)c1cc2c([nH]c3ccccc32)c(-c2ccc(N(C)C)cc2)n1 = 63.3
3) O=C1CS/C(=N\NC(=O)c2cc3c([nH]c4ccccc43)c(-c3ccccc3)n2)N1 = 15.8
4) CN(C)c1ccc(-c2nc(C(=O)N/N=C3\SCC(=O)N3c3ccccc3)cc3c2[nH]c2ccccc23)cc1 = 12.5

// moving on: another record for GI50
Ask: Name the reported GI50 value associated with the molecule CCN1C(=O)CS/C1=N\NC(=O)c1cc2c([nH]c3ccccc32)c(-c2ccccc2)n1
Reply: 0.46

====

Each entry below carries its recorded selectivity ratio.
Assay: Selectivity index, ratio of CC50 for Herpes simplex type I KOS infected African green monkey Vero cells to EC50 for Herpes simplex virus type 1 KOS
Assay type: toxicity, cell-based
Settings: Herpes simplex virus type 1 KOS infected Vero cells, read-out: Ratio CC50/EC50
Answer field: number only, no words.

1. CCN1C(=O)CS/C1=N\NC(=O)c1cc2c([nH]c3ccccc32)c(-c2ccc(N(C)C)cc2)n1 = 243
2. CCN1C(=O)CS/C1=N\NC(=O)c1cc2c([nH]c3ccccc32)c(-c2cccc([N+](=O)[O-])c2)n1 = 20.7
3. CN(C)c1ccc(-c2nc(C(=O)NN3C(=O)CSC3c3ccccc3)cc3c2[nH]c2ccccc23)cc1 (stereo not drawn) = 592
4. O=C(NN1C(=O)CSC1c1ccccc1)c1cc2c([nH]c3ccccc32)c(-c2cccc([N+](=O)[O-])c2)n1 (stereo not drawn) = 534
5. O=C(NN1C(=O)CSC1c1ccccc1)c1cc2c([nH]c3ccccc32)c(-c2ccccc2)n1 (stereo not drawn) = 235
6. O=C(NN1C(=O)CSC1c1ccccc1)c1cc2c([nH]c3ccccc32)c(-c2ccccc2F)n1 (stereo not drawn) = 21
7. CN(C)c1ccc(-c2nc(C(=O)N/N=C3/NC(=O)CS3)cc3c2[nH]c2ccccc23)cc1 = 18

// moving on: another record for selectivity ratio
Ask: Name the reported selectivity ratio value associated with the compound CCN1C(=O)CS/C1=N\NC(=O)c1cc2c([nH]c3ccccc32)c(-c2ccc(OC)cc2)n1
Reply: 65.2

====

Each entry below carries its recorded GI50.
Experiment: Antiproliferative activity against human NCI-H460 cells after 48 hrs by SRB assay
Assay type: functional
Conditions: NCI-H460, 48 h

1) CN(C)c1ccc(-c2nc(C(=O)N/N=C3/NC(=O)CS3)cc3c2[nH]c2ccccc23)cc1 = 1.44 µM
2) CN(C)c1ccc(-c2nc(C(=O)N/N=C3\SCC(=O)N3c3ccccc3)cc3c2[nH]c2ccccc23)cc1 = 17.9 µM
3) CCN1C(=O)CS/C1=N\NC(=O)c1cc2c([nH]c3ccccc32)c(-c2ccccc2)n1 = > 100 µM

// moving on: another record for GI50
Ask: Name the reported GI50 value associated with the molecule O=C(N/N=C1\SCC(=O)N1c1ccccc1)c1cc2c([nH]c3ccccc32)c(-c2ccccc2F)n1
Reply: > 100 µM

====

Assay: Cytotoxicity against African green monkey Vero cells after 48 hrs by SRB assay
Type: toxicity, cell-based
Settings: chlorocebus sabaeus
QUANTITY NAME: CC50 at 48 h (µM)
// return numeric value only (unit: µM, not printed)

A selection of reference data follows.
1. O=C(NN1C(=O)CSC1c1ccccc1)c1cc2c([nH]c3ccccc32)c(-c2ccccc2)n1 (stereo not drawn) = 506
2. O=C(NN1C(=O)CSC1c1ccccc1)c1cc2c([nH]c3ccccc32)c(-c2cccc([N+](=O)[O-])c2)n1 (stereo not drawn) = 1080
3. CN(C)c1ccc(-c2nc(C(=O)NN3C(=O)CSC3c3ccccc3)cc3c2[nH]c2ccccc23)cc1 (stereo not drawn) = 467

Ask: Name the reported CC50 at 48 h value associated with the compound CCN1C(=O)CS/C1=N\NC(=O)c1cc2c([nH]c3ccccc32)c(-c2ccccc2F)n1
Reply: 2980

Ask: Name the reported CC50 at 48 h value associated with the compound O=C(N/N=C1\SCC(=O)N1c1ccccc1)c1cc2c([nH]c3ccccc32)c(-c2ccccc2F)n1
Reply: 339

Ask: Name the reported CC50 at 48 h value associated with the compound O=C1CS/C(=N\NC(=O)c2cc3c([nH]c4ccccc43)c(-c3ccccc3)n2)N1
Reply: 2490

Ask: Name the reported CC50 at 48 h value associated with the compound O=C1CS/C(=N\NC(=O)c2cc3c([nH]c4ccccc43)c(-c3ccccc3Cl)n2)N1
Reply: 766

Ask: Name the reported CC50 at 48 h value associated with the compound CCN1C(=O)CS/C1=N\NC(=O)c1cc2c([nH]c3ccccc32)c(-c2ccc(OC)cc2)n1
Reply: 1730

Ask: Name the reported CC50 at 48 h value associated with the compound CN(C)c1ccc(-c2nc(C(=O)N/N=C3/NC(=O)CS3)cc3c2[nH]c2ccccc23)cc1
Reply: 1740

====

Experiment: Cytotoxicity against African green monkey Vero cells after 48 hrs by SRB assay
Type: toxicity, cell-based
Conditions: chlorocebus sabaeus
Each entry below carries its recorded CC50 at 48 h.
// return numeric value only (unit: µM, not printed)

1) O=C(N/N=C1\SCC(=O)N1c1ccccc1)c1cc2c([nH]c3ccccc32)c(-c2ccccc2)n1 = 1480
2) CCN1C(=O)CS/C1=N\NC(=O)c1cc2c([nH]c3ccccc32)c(-c2ccccc2Cl)n1 = 1400
3) CCN1C(=O)CS/C1=N\NC(=O)c1cc2c([nH]c3ccccc32)c(-c2ccc(N(C)C)cc2)n1 = 1650

Ask: Name the reported CC50 at 48 h value associated with the molecule O=C1CS/C(=N\NC(=O)c2cc3c([nH]c4ccccc43)c(-c3ccccc3F)n2)N1
Reply: 1070
